Tested on: Bacteroides thetaiotaomicron
Assay: growth AUC relative to DMSO control (median of replicates) (fraction); higher = more growth (less inhibition), active = hit call of the paper
Settings: 20 µM; 24 h
measure: growth AUC
Kindly provide the number alone.

# annotated cases, reported growth AUC shown
INSERT INTO assay_data (molecule, assay_target, assay_value) VALUES
  ('CCCCc1c(C)nc(N(C)C)[nH]c1=O', 'Bacteroides thetaiotaomicron', 0.989),
  ('CCS(=O)(=O)c1nc2ccccn2c1S(=O)(=O)NC(=O)Nc1nc(OC)cc(OC)n1', 'Bacteroides thetaiotaomicron', 0.995),
  ('CNC(=O)Oc1ccccc1C(C)C', 'Bacteroides thetaiotaomicron', 1.01),
  ('COc1nc(C)nc(NC(=O)NS(=O)(=O)c2ccccc2Cl)n1', 'Bacteroides thetaiotaomicron', 0.958),
  ('Cc1cc(C2CC2)nc(Nc2ccccc2)n1', 'Bacteroides thetaiotaomicron', 0.903),
  ('COc1cc(OC)n2nc(S(=O)(=O)Nc3c(Cl)ccc(C)c3Cl)nc2n1', 'Bacteroides thetaiotaomicron', 0.99),
  ('CS/C(C)=N/OC(=O)N(C)SN(C)C(=O)O/N=C(\C)SC', 'Bacteroides thetaiotaomicron', 1.03),
  ('COC(=O)Nc1cccc(OC(=O)Nc2cccc(C)c2)c1', 'Bacteroides thetaiotaomicron', 1.01),
  ('CCSCc1ccccc1OC(=O)NC', 'Bacteroides thetaiotaomicron', 0.967),
  ('C=C(C)[C@H]1Cc2c(ccc3c2O[C@@H]2COc4cc(OC)c(OC)cc4[C@@H]2C3=O)O1', 'Bacteroides thetaiotaomicron', 0.965);

Bacteroides thetaiotaomicron assay, molecule "O=C1C=C(N(Cc2ccc(Cl)nc2)CC(F)F)CO1" , recorded growth AUC = 1.01

Field growth AUC (system: Bacteroides thetaiotaomicron) for entry "COc1cccc(C(=O)NN(C(=O)c2cc(C)cc(C)c2)C(C)(C)C)c1C" = 0.986

Readout growth AUC for "Cc1cc(OC(=O)N(C)C)nn1C(=O)N(C)C" , test system Bacteroides thetaiotaomicron, was 1.02

----------
Tested on: Collinsella aerofaciens
Experiment: growth AUC relative to DMSO control (median of replicates) (fraction); higher = more growth (less inhibition), active = hit call of the paper
Settings: 20 µM; 24 h
Label scheme for growth AUC: lower than 1 is No, 1 and above is Yes.

INPUT: Is growth AUC at least 1? Consider "CON(C)C(=O)Nc1ccc(Br)cc1"
OUTPUT: Yes

INPUT: Evaluate "COc1nc(C)nc(NC(=O)NS(=O)(=O)c2ccccc2CCC(F)(F)F)n1" : growth AUC at minimum 1?
OUTPUT: No

INPUT: Assess whether reported growth AUC for "Cc1cc(C2CC2)nc(Nc2ccccc2)n1" sits at 1 or higher.
OUTPUT: No

----------
Tested on: Parabacteroides distasonis
Assay: growth AUC relative to DMSO control (median of replicates) (fraction); higher = more growth (less inhibition), active = hit call of the paper
Conditions: 20 µM; 24 h
Bucketed by reported growth AUC, buckets being low value (below 0.9), medium value (0.9 to below 1), high value (1 or more)

Please review the entries below; each comes with its answer.
INSERT INTO results (compound, class_name) VALUES
  ('Clc1cc(Cl)c(Cl)c(Cl)c1', 'medium value'),
  ('CCCCN(CC)c1c([N+](=O)[O-])cc(C(F)(F)F)cc1[N+](=O)[O-]', 'high value'),
  ('CC(C)N(C(=O)COc1nnc(C(F)(F)F)s1)c1ccc(F)cc1', 'medium value'),
  ('CCOP(=S)(OCC)Oc1cnc2ccccc2n1', 'low value'),
  ('CCOP(=S)(NC(C)CC)Oc1cc(C)ccc1[N+](=O)[O-] (stereo unspecified)', 'low value');

Now turn to the next compound.
INPUT: Band for the recorded growth AUC of CCOC(=O)C(Cl)Cc1cc(-n2nc(C)n(C(F)F)c2=O)c(F)cc1Cl (stereo unspecified) ?
OUTPUT: medium value

----------
Tested on: Odoribacter splanchnicus
Assay: growth AUC relative to DMSO control (median of replicates) (fraction); higher = more growth (less inhibition), active = hit call of the paper;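 active = AUC reduced over 20% with Padj below 0.05 in at least 2 of 3 replicates; inactive = otherwise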
Conditions: 20 µM; 24 h
Can you answer with just one of these options? Yes (active), No (inactive)

Solved entries (count: 5):
INSERT INTO assay_data (compound, assay_target, class_name) VALUES
  ('CNC(=O)Oc1cc(C)c(N(C)C)c(C)c1', 'Odoribacter splanchnicus', 'No'),
  ('Cc1ccn2nc(S(=O)(=O)Nc3c(F)cccc3F)nc2n1', 'Odoribacter splanchnicus', 'No'),
  ('CNC(=O)Oc1cccc2c1OC(C)(C)C2=O', 'Odoribacter splanchnicus', 'No'),
  ('CNC(=O)ON=C(CSC)C(C)(C)C', 'Odoribacter splanchnicus', 'No'),
  ('CCCCN(CC)c1c([N+](=O)[O-])cc(C(F)(F)F)cc1[N+](=O)[O-]', 'Odoribacter splanchnicus', 'No');

Query compound follows.
INPUT: For C=CCOC(Cn1ccnc1)c1ccc(Cl)cc1Cl.O=S(=O)(O)O (configuration not stated) , which call appears in the assay record?
OUTPUT: No

----------
Tested on: Escherichia coli IAI1
Test: growth AUC relative to DMSO control (median of replicates) (fraction); higher = more growth (less inhibition), active = hit call of the paper
Conditions: 20 µM; 24 h
Each record here notes measured growth AUC.
No unit in the answer, please; the number alone is enough.

INSERT INTO measurements (compound, assay_target, measure, assay_value) VALUES
  ('COCC(=O)N(c1c(C)cccc1C)C(C)C(=O)OC (stereo not given)', 'Escherichia coli IAI1', 'growth AUC', 1.01),
  ('CCC(C)c1cc([N+](=O)[O-])cc([N+](=O)[O-])c1OC(=O)C=C(C)C (stereo not given)', 'Escherichia coli IAI1', 'growth AUC', 0.973),
  ('COP(=O)(OC)Oc1ccc(SC)c(C)c1', 'Escherichia coli IAI1', 'growth AUC', 1.02),
  ('CC(C)C(C(=O)OC(C#N)c1cccc(Oc2ccccc2)c1)c1ccc(OC(F)F)cc1 (stereo not given)', 'Escherichia coli IAI1', 'growth AUC', 0.979);

Okay, now this compound:
Lab note: "COC(=O)c1sccc1S(=O)(=O)NC(=O)Nc1nc(C)nc(OC)n1" gave growth AUC of 0.967

----------
Entries and their measured growth AUC follow.
Test system: Bifidobacterium longum subsp. longum
Test: growth AUC relative to DMSO control (median of replicates) (fraction); higher = more growth (less inhibition), active = hit call of the paper
Settings: 20 µM; 24 h
// print number alone

INSERT INTO assay_data (molecule, measure, assay_value) VALUES
  ('Cc1cc(C(C#N)c2ccc(Cl)cc2)c(Cl)cc1NC(=O)c1cc(I)cc(I)c1O (stereo unspecified)', 'growth AUC', 0.121);

Field growth AUC (entry "O=c1[nH]c2c(c(=O)n1C1CCCCC1)CCC2" ) reads 0.963

# growth AUC of CCSC(C)CC1CC(=O)C(/C(CC)=N/OC/C=C/Cl)=C(O)C1 (mixture of isomers) = 1.01

----------
System: Roseburia intestinalis
Assay: growth AUC relative to DMSO control (median of replicates) (fraction); higher = more growth (less inhibition), active = hit call of the paper
Settings: 20 µM; 24 h
Let's look at some compounds and their measured growth AUC.
The answer should be written as a number, with no unit following it.

Worked cases, growth AUC given:
INSERT INTO assay_data (compound, measure, assay_value) VALUES
  ('CCOCN(C(=O)CCl)c1c(C)cccc1CC', 'growth AUC', 1.01),
  ('Nc1nc(N)nc(Cl)n1', 'growth AUC', 1.05),
  ('CC1=C(C(=O)Nc2ccccc2)S(=O)(=O)CCO1', 'growth AUC', 0.989),
  ('COP(=S)(OC)Oc1c(Cl)cc(C)cc1Cl', 'growth AUC', 0.912);

Please turn your attention to the following entry.
Reported growth AUC for CCCOP(=S)(OCCC)SCC(=O)N1CCCCC1C (centres undefined) was 0.992

----------
Test system: Escherichia coli IAI1
Assay: growth AUC relative to DMSO control (median of replicates) (fraction); higher = more growth (less inhibition), active = hit call of the paper
Conditions: 20 µM; 24 h
measure: growth AUC
Kindly provide the number alone.

INSERT INTO measurements (compound, assay_value) VALUES
  ('COC(=O)C1(O)c2ccccc2-c2ccccc21', 1.01),
  ('CCOP(=S)(OCC)SCSC(C)(C)C', 1.01),
  ('COc1cc(OC)nc(NC(=O)NS(=O)(=O)c2ncccc2C(F)(F)F)n1', 0.998);

Please fill in: growth AUC reported for "CNC(=O)c1cc(Cl)cc(C)c1NC(=O)c1cc(Br)nn1-c1ncccc1Cl" = 0.995

The compound listed as "CCOP(=O)(OCC)O/C(=C/Br)c1ccc(Cl)cc1Cl" shows growth AUC equal to 0.973

# growth AUC (compound: CCOP(=O)(N=C1SCC(C)S1)OCC (configuration not stated) ) is 0.951
